- experimentalTarget: Rac-1 (Homo sapiens, UniProt P63000)
- Construct: made in house
- measurementProtocol: Ras GTP Binding Domain Inhibition Assay (Ras Superfamily Assay)
- appliedConditions: read-out: Rac-1: % inh.
measurementLabel: inhibition at 20 µM

| molecule | inhibition at 20 µM |
| --- | --- |
| CO[C@H]1C[C@H](S(=O)(=O)Nc2nc(-c3nccn3C)nn3cc(-c4ccccc4)c(-c4ccccc4)c23)C1 [Compound 214] | 50 to 75% |

# return inhibition at 20 µM for each item in the list
1. Cc1c(-c2ccn(C)n2)cn2nc(-c3nccn3C)nc(Nc3cc(C4CCC4)[nH]n3)c12 [Compound 257]
2. Cc1c(-c2cccnc2)cn2nc(-c3nccn3C)nc(Nc3ccncn3)c12 [Compound 156]
3. COc1cc(Nc2nc(-c3nccn3C)nn3cc(-c4ccn(C(C)C)n4)c(C)c23)ccn1 [Compound 87]

1: 50 to 75%; 2: 76 to 100%; 3: 0%

# return inhibition at 20 µM for each item in the list
1. Cc1[nH]nc(Nc2nc(-c3nccn3C)nn3cc(-c4ccn(C)n4)c(C)c23)c1C [Compound 267]
2. COc1cccc(-c2cn3nc(-c4nccn4C)nc(N[C@H]4C[C@H](OC)C4)c3c2-c2ccccc2)c1Cl [Compound 32]

76 to 100%
0%

# return inhibition at 20 µM for each item in the list
1. COc1cccc(-c2cn3nc(-c4nccn4C)nc(O)c3c2-c2ccccc2)c1Cl [Compound 28]
2. COc1cccc(-c2cn3nc(-c4nccn4C)nc(N[C@@H]4CC[C@@H](OC)C4)c3c2-c2ccccn2)c1F (racemic) [Compound 46]
3. Cc1c(-c2ccn(C3CC3)n2)cn2nc(-c3nccn3C)nc(O)c12 [Compound 134]
4. Cc1c(-c2ccn(C(C)C)n2)cn2nc(-c3nccn3C)nc(Nc3ncc(C4CC4)o3)c12 [Compound 90]
5. COc1cc(-c2cn3nc(-c4nccn4C)nc(N[C@@H]4CC[C@@H](OC)C4)c3c2C)ccn1 (racemic) [Compound 163]

1. 26 to 49%
2. 50 to 75%
3. 1 to 25%
4. 76 to 100%
5. 0%

# return inhibition at 20 µM for each item in the list
1. COc1cccc(-c2cn3nc(-c4nccn4C)nc(N[C@H]4C[C@H](OC)C4)c3c2-c2ccccc2)c1C [Compound 209]
2. CO[C@H]1C[C@@H](Nc2nc(-c3nccn3C)nn3cc(-c4ccn(C)n4)c(C)c23)C1 [Compound 131]
3. Cc1c(-c2ccn(C)n2)cn2nc(-c3nccn3C)nc(Nc3cc(C(F)F)[nH]n3)c12 [Compound 258]

26 to 49%
0%
0%

Can you share its inhibition at 20 µM? I mean this molecule: CO[C@H]1C[C@H](Nc2nc(-c3nccn3C)nn3cc(-c4cccnc4)c(C)c23)C1 [Compound 151]
50 to 75%

* * *

- System: KRas G12D mutant
- measurementProtocol: Ras GTP Binding Domain Inhibition Assay (Ras Superfamily Assay)
- appliedConditions: 20 μM compound, with SOS
measurementLabel: KRas G12D mutant + SOS: % inh.

| molecule | observedValue |
| --- | --- |
| CO[C@H]1C[C@H](Nc2nc(-c3nccn3C)nn3cc(-c4cccnc4)c(-c4cccnc4)c23)C1 | A (A = 1-25% inhibition) |
| COCC1CCN(c2nc(-c3nccn3C)nn3cc(-c4ccn(C(C)C)n4)c(-c4ccccc4)c23)C1.Cl (racemic) | A (A = 1-25% inhibition) |
| CO[C@H]1C[C@@H](Nc2nc(-c3nccn3C)nn3cc(-c4ccn(C)n4)c(C)c23)C1 | 0 (0 = 0% inhibition) |
| COc1ncncc1Nc1nc(-c2nccn2C)nn2cc(-c3ccn(C(C)C)n3)c(C)c12 | A (A = 1-25% inhibition) |
| COC1CCCN(c2nc(-c3ccccn3)nn3cc(-c4ccn(C(C)C)n4)c(-c4ccccc4)c23)C1 (racemic) | 0 (0 = 0% inhibition) |

Consider the record given below.
Can you share its KRas G12D mutant + SOS: % inh.? I mean this molecule: COCC1CCN(c2nc(-c3ccccn3)nn3cc(-c4ccn(C(C)C)n4)c(-c4ccccc4)c23)C1 (racemic)
A (A = 1-25% inhibition)
